Source: patent US20260373248A1

- System: luciferase
- assay_explanation: Luciferase expression after local (intramuscular or subcutaneous) administration of mRNA
- Assay type: in vivo
- condition_description: subcutaneous, mRNA 0.01 mpk, 6 hours
Non-standard residues stand in square brackets, D forms with d. Residues, ends and D or L forms follow the SMILES beside them. *: point of attachment. Gly(N-(3-decanoyloxypropyl)) = CCCCCCCCCC(=O)OCCCNCC(=O)O; N(3-lauroyloxypropyl)Gly = CCCCCCCCCCCC(=O)OCCCNCC(=O)O; Gly(N-3-morpholinopropyl) = O=C(O)CNCCCN1CCOCC1; N(2-ethylhexyl)Gly = CCCCC(CC)CNCC(=O)O; N(CH(CH2OH)2)Gly = O=C(O)CNC(CO)CO; N(octyl)Gly = CCCCCCCCNCC(=O)O; NHexGly = CCCCCCNCC(=O)O; For = O=C*
# reported SC Flux; entries follow
Numbers only; they are read as p/s.

Worked examples follow.
CCCCCCCCCCCC(=O)OCCCN(CC(=O)N(CCCOC(=O)CCCCCCCCCCC)CC(=O)N(CCCCCC)CC(=O)N(CCCOC(=O)CCCCCCCCCCC)CC(=O)N(CCCOC(=O)CCCCCCCCCCC)CC(=O)N(CCCCCC)CC(N)=O)C(=O)CN(C=O)CCCN1CCOCC1 [Compound 71] (For-[Gly(N-3-morpholinopropyl)][N(3-lauroyloxypropyl)Gly][N(3-lauroyloxypropyl)Gly][NHexGly][N(3-lauroyloxypropyl)Gly][N(3-lauroyloxypropyl)Gly][NHexGly]-NH2) ... 9.18E+07
CCCCCCCCCCCC(=O)OCCCN(CC(=O)N(CC(N)=O)CC(CC)CCCC)C(=O)CN(CCCCCC)C(=O)CN(CC(CC)CCCC)C(=O)CN(CCCOC(=O)CCCCCCCCCCC)C(=O)CN(CCCCCC)C(=O)CNC(CO)CO (stereo not drawn) [Compound 54] (H-[N(CH(CH2OH)2)Gly][NHexGly][N(3-lauroyloxypropyl)Gly][N(2-ethylhexyl)Gly][NHexGly][N(3-lauroyloxypropyl)Gly][N(2-ethylhexyl)Gly]-NH2) ... 2.18E+07

# ---- query compound ----
Q: Quick one: SC Flux for CCCCCCCCCC(=O)OCCCN(CC(=O)N(CC(N)=O)CC(CC)CCCC)C(=O)CN(CCCCCCCC)C(=O)CN(CC(CC)CCCC)C(=O)CN(CCCOC(=O)CCCCCCCCC)C(=O)CN(CCCCCCCC)C(=O)CNC(CO)CO (stereo not drawn) [Compound 32] (H-[N(CH(CH2OH)2)Gly][N(octyl)Gly][Gly(N-(3-decanoyloxypropyl))][N(2-ethylhexyl)Gly][N(octyl)Gly][Gly(N-(3-decanoyloxypropyl))][N(2-ethylhexyl)Gly]-NH2) ?
A: 9.18E+08
